- experimental system: mouse NPY Y5 receptor (Mus musculus)
- Sequence (O70342 1-466): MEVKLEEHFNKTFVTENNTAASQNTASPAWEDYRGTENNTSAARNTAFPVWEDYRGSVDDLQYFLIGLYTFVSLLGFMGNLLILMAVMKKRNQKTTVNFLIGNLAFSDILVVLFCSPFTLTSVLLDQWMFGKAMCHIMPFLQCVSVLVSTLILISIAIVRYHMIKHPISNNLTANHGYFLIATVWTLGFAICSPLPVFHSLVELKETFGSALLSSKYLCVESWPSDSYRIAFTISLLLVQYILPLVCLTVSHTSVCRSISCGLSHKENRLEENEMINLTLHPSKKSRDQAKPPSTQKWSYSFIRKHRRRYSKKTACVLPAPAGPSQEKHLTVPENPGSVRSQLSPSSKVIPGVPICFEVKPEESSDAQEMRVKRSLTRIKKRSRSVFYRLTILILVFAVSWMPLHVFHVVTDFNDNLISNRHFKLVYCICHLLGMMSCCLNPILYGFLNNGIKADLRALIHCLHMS
Criterion: IC50 strictly less than 0.6 nM. Met: Condition met. Not met: Condition not met.

Examples from the recorded data:
O=C(Nc1cccc(-c2ccccc2F)c1)C1CCN(C(=O)c2ccccc2C(F)(F)F)CC1 [Ia-104] : Condition not met
O=C(Cn1cc(Cl)ccc1=O)N1CCC(c2cc3cc(OC(F)F)ccc3[nH]2)CC1 [Ia-28] : Condition not met
CC(C)c1ccccc1C(=O)N1CCC(C(=O)Nc2ccc(OC(F)F)cc2)CC1 [Ia-62] : Condition not met
N#Cc1ccccc1C(=O)N1CCC(c2nc(-c3cccc(C(F)(F)F)c3)c[nH]2)CC1 [Ia-87] : Condition met
N#Cc1ccccc1CN1CCC(C(=O)Nc2cccc(-c3ccccc3F)c2)CC1 [Ia-99] : Condition not met
O=C(Nc1ccn(-c2ccccc2F)n1)[C@H]1CCN(C(=O)c2ccccc2C(F)(F)F)C1 [Ia-106] : Condition not met
N#Cc1ccccc1C(=O)N1CCC(C(=O)Nc2ccnc(-c3ccccc3F)c2)CC1 [Ia-40] : Condition met
N#Cc1ccccc1C(=O)N1CCC(C(=O)Nc2cccc(-c3nccs3)c2)CC1 [Ia-54] : Condition met

Continue with the compound presented below.
In the record for O=C(Cn1cc(Cl)ccc1=O)N1CCC(c2cc3cc(-c4ccccn4)ccc3[nH]2)CC1 [Ia-29] , is IC50 less than 0.6 nM? Condition not met
